# PROTOCOL_NOTES: NCI Yeast Anticancer Drug Screen. Data for the mlh1 rad18 strain (AID 175)
# CONDITION_NOTES: S. cerevisiae mlh1 rad18 strain growth inhibition; at 50.0 µM; hits give high values
Compounds without any hit were thinned out: in the full panel of roughly 79,000, 15% have a hit. Active and inactive are the calls of the source. Cut-off read from the data, not from the text of the source: active = growth inhibition above about 70%; inactive = the rest.
PARAMETER_MEASURED: growth inhibition

CCCCNC(C)(C)CSS(=O)(=O)O; -14.6% (inactive)
Cc1cn(C2CC(O)C(CO)C2C)c(=O)[nH]c1=O (configuration not stated); -24.9% (inactive)
CC(Nc1ccc(Br)cc1[N+](=O)[O-])C(=O)O (configuration not stated); 6.95% (inactive)

Documented growth inhibition of Nc1nc(-c2ccc(-c3ccccc3)cc2)cc(=O)[nH]1 : -25.8% (inactive)

Documented growth inhibition of C=CCc1ccc(OC(=O)Nc2cccc(OC)c2)c(OC)c1 : 68.8% (inactive)

Documented growth inhibition of C=CCNC(=S)Nc1cccc(O)c1 : -2.55% (inactive)

Documented growth inhibition of CCOC(=O)/C(=C/n1c(=S)[nH]c2ccc([N+](=O)[O-])cc21)C(=O)c1ccccc1 : -4.65% (inactive)

Documented growth inhibition of COC(=O)C1C(C(=O)OC)C(C(=O)OC)C1C(=O)OC (configuration not stated) : 26.9% (inactive)

Documented growth inhibition of NC(=O)NC(=O)Cc1ccc(N)cc1 : -4.9% (inactive)

Documented growth inhibition of Cc1cc(OCc2nnc3n2S(=O)(=O)c2ccccc2N3C)ccc1Cl : -22.4% (inactive)

Documented growth inhibition of NC(=O)NC12CC3CC(CC(F)(C3)C1)C2 : -9.85% (inactive)

Documented growth inhibition of O=C(NCc1ccccc1)NCc1ccccc1 : -4.5% (inactive)

###

# PROTOCOL_NOTES: NCI Yeast Anticancer Drug Screen. Data for the rad50 strain (AID 155);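 note: 0% = growth of vehicle-only cultures of the same strain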
# CONDITION_NOTES: S. cerevisiae rad50 strain growth inhibition; at 50.0 µM; hits give high values
This is part of a sample that, as a whole, favours compounds with a hit. Of some 79,000 tested, about 15% had one in any assay.
PARAMETER_MEASURED: growth inhibition (%)
# output: bare number, implied unit %

CC(C)=CCN(N=O)c1ncnc2nc[nH]c12; -10.1
CN(C(=O)CCC(=O)O)c1ccccc1C(=O)O; 0.2
Clc1ccccc1C1N2CCCCC2[C@@H]2c3[nH]c4ccccc4c3CCN12 (stereo partly specified); -14.8
Cc1cc(C[C@H]2O[C@@H]3OC(C)(C)O[C@@H]3[C@H]3OC(C)(C)O[C@H]32)c2ccccc2n1; -4.6
O=S(=O)(c1ccc(Cl)cc1)N1CCN(S(=O)(=O)c2ccc(Cl)cc2)C1; 2.05
CCOC(=O)[C@H]1Nc2c(cccc2[N+](=O)[O-])[C@H]2OCC[C@@H]12; -12.8
CCCCCCCCCCCCCCCCCCC(CO)CO; -22.4
O=S1(=O)CC(N2CCCCC2)C=C(c2ccccc2)O1 (stereo unspecified); 37.1
COC(=O)c1c(O)c2c(c3c1OC(C)(C)CC3)OC(C)(C)CC2; -13.3
Cc1ccccc1/C=C/C(=O)c1ccccc1; 45.2

Documented growth inhibition of CN(NC(=O)c1ccco1)C1=NCCCCN1 : -11.8

Documented growth inhibition of COc1cc(/C=C/C=C(C(=O)O)C(=O)O)cc(OC)c1OC : -5

Documented growth inhibition of Cc1cccc(C)c1NC(=O)CCC(=O)CC(=O)C(C)C : -2.6

Documented growth inhibition of Cc1ccc(-c2nnc(C)o2)cc1 : 5.55

Documented growth inhibition of Cc1cccc(C)c1NC(=S)/N=C/C1=C(O)c2ccccc2C1=O : -36.8

Documented growth inhibition of O=C(NC(CSC(=O)c1ccccc1)C(=O)O)c1ccccc1 (stereo unspecified) : 3.2

Documented growth inhibition of C(=Nc1ccc2ccccc2c1)c1cccs1 : 1.6

Documented growth inhibition of CCCCCC1OCC(C)(C)CO1 : 3.95
